TARGET_ENTITY: 5-HT7R (Homo sapiens (Human))
PROTOCOL_NOTES: cAMP assay (luminescence-based, GloSensor)
Format: cell-based
RUN_PARAMETERS: 10 μM; HEK293 cells transfected with human 5-HT7R and GloSensor-22F
ATTRIBUTE_MEASURED: inhibition at 10 µM (%)

| COMPOUND | QUANTITATIVE_RESULT |
| --- | --- |
| Clc1ccc(CN2CCCC2)cc1-c1ccccc1 [Compound 12] | 80.8 |
| Clc1ccccc1-c1cccc(C2=NCCN2)c1 [Compound 24] | 47.6 |
| Cc1cccc(-c2cccc(C3=NCCN3)c2)c1 [Compound 28] | 44.6 |
| Cc1ccccc1-c1cc(C2=NCCN2)ccc1Cl [Compound 38] | 51.4 |
| Clc1cccc(-c2cc(CN3CCCC3)ccc2Cl)c1 [Compound 14] | 51.1 |
| COc1cccc(-c2cc(CN3CCCC3)ccc2Cl)c1 [Compound 20] | 70.1 |
| Cc1ccccc1-c1cccc(C2=NCCN2)c1 [Compound 27] | 55.3 |
| Clc1ccc(-c2cc(C3=NCCN3)ccc2Cl)cc1 [Compound 37] | 43.3 |
| Clc1cccc(-c2cc(C3=NCCN3)ccc2Cl)c1 [Compound 36] | 52.4 |
| COc1cccc(OC)c1-c1cc(C2=NCCN2)ccc1Cl [Compound 44] | 48.4 |

====

TARGET_ENTITY: 5-HT7R (Homo sapiens (Human), UniProt P34969)
Sequence (P34969 whole entry): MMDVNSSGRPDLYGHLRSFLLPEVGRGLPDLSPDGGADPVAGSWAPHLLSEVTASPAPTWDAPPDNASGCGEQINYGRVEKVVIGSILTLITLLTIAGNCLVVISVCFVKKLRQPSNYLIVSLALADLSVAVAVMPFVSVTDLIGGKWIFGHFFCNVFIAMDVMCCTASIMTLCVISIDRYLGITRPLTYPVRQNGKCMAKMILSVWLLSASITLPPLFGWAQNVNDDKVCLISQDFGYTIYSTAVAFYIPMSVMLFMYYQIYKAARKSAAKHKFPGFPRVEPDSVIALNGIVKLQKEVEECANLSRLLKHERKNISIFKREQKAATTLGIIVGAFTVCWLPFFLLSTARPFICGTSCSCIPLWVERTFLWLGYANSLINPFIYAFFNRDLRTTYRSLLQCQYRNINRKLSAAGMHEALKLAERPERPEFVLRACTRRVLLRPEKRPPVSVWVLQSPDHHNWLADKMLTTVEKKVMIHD
PROTOCOL_NOTES: Tango assay (β-arrestin signaling system)
Assay type: cell-based
RUN_PARAMETERS: 10 μM; HTLA cells transfected with 5-HT7R-TCS-tTA construct
ATTRIBUTE_MEASURED: inhibition at 10 µM (%)

| COMPOUND | TARGET_ENTITY | inhibition at 10 µM [%] |
| --- | --- | --- |
| c1ccc(-c2cccc(CN3CCCC3)c2)cc1 [Compound 1] | 5-HT7R (Homo sapiens (Human), UniProt P34969) | 17.5 |
| Clc1ccc(CN2CCCC2)cc1-c1ccccc1 [Compound 12] | 5-HT7R (Homo sapiens (Human), UniProt P34969) | 26.1 |
| Clc1ccccc1-c1cccc(C2=NCCN2)c1 [Compound 24] | 5-HT7R (Homo sapiens (Human), UniProt P34969) | 36 |
| Clc1ccc(-c2cccc(C3=NCCN3)c2)cc1 [Compound 26] | 5-HT7R (Homo sapiens (Human), UniProt P34969) | 23.1 |
| COc1ccccc1-c1c(Cl)ccc(CN2CCCC2)c1OC [Compound 22] | 5-HT7R (Homo sapiens (Human), UniProt P34969) | 3.3 |

P. Clc1ccccc1-c1cc(C2=NCCN2)ccc1Cl [Compound 35]
Q. COc1ccc(-c2cc(C3=NCCN3)ccc2Cl)cc1 [Compound 43]
Exercise: Smaller inhibition at 10 µM value, P vs Q ? Lab note: record the label of whichever item you select.
Solution: Q
(Q: 21.5%, P: 42%)

P. Clc1ccc(-c2cc(C3=NCCN3)ccc2Cl)cc1 [Compound 37]
Q. Cc1ccccc1-c1cccc(CN2CCCC2)c1 [Compound 5]
R. Cc1ccc(-c2cccc(C3=NCCN3)c2)cc1 [Compound 29]
S. Cc1cccc(-c2cc(CN3CCCC3)ccc2Cl)c1 [Compound 17]
Exercise: Order the entries by their reported inhibition at 10 µM, beginning at the minimum. Please list each label once, in the requested order.
Solution: S, R, Q, P

A. Cc1cccc(-c2cccc(CN3CCCC3)c2)c1 [Compound 6]
B. Clc1cccc(-c2cc(C3=NCCN3)ccc2Cl)c1 [Compound 36]
C. Clc1ccc(-c2cccc(CN3CCCC3)c2)cc1 [Compound 4]
Exercise: Please rank these compounds by inhibition at 10 µM in descending order. Please list each label once, in the requested order.
Solution: B, A, C
(B: 44.8%, A: 22%, C: 14.1%)
